Biological target: UniProt:P11362
Sequence (P11362 22-822, species assumed): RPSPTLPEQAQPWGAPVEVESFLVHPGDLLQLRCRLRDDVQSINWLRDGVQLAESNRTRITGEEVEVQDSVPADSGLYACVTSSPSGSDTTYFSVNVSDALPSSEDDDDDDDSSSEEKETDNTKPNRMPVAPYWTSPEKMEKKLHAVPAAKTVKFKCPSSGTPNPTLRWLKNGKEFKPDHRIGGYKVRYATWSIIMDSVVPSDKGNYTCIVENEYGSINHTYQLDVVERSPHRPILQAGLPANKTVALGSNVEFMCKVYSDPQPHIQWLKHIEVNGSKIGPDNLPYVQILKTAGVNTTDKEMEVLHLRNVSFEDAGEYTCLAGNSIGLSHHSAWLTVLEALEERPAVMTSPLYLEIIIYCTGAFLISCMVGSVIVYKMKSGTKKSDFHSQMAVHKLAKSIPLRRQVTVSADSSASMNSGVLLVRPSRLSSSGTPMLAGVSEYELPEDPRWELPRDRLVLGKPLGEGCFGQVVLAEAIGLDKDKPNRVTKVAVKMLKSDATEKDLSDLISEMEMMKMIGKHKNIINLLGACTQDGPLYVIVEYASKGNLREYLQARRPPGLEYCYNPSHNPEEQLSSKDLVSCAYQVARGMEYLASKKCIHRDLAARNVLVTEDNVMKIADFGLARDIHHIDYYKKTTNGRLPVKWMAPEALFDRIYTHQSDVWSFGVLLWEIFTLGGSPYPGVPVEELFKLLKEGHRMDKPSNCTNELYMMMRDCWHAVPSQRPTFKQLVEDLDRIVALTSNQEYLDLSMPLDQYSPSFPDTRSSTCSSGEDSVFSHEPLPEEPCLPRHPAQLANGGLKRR
Test: In vitro kinase assay (Table 1)
Assay type: biochemical
parameter: IC50

Would you kindly share the measured IC50 for CNC(=O)c1cc(Oc2ccc3nc(NC4CCCCC4O)sc3c2)ccn1 (stereo not shown) ?
> 25 µM

* * *

Target: BAF/Tel-JAK2-1.2/sACP (Homo sapiens)
Construct: fused on or other part: P41212 (Transcription factor ETV6)
Sequence (O60674 849-1124 limits assumed, change not shown): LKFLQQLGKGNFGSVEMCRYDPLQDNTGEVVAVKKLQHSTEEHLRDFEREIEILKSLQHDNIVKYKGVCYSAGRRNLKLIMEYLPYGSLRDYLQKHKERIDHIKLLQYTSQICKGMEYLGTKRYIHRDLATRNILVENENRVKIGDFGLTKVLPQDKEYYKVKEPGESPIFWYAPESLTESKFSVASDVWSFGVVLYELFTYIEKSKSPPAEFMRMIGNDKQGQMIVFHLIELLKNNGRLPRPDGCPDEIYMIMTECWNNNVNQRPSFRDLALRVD
Test: BaF3 proliferation assay
Assay type: cell-based, murine
parameter: EC50

Would you kindly share the measured EC50 for CNC(=O)c1cc(Oc2ccc3nc(NC4CCCCC4O)sc3c2)ccn1 (stereo not shown) ?
> 10 µM

* * *

Biological target: TRKC (Homo sapiens, UniProt Q16288)
Sequence (Q16288 32-839, species assumed): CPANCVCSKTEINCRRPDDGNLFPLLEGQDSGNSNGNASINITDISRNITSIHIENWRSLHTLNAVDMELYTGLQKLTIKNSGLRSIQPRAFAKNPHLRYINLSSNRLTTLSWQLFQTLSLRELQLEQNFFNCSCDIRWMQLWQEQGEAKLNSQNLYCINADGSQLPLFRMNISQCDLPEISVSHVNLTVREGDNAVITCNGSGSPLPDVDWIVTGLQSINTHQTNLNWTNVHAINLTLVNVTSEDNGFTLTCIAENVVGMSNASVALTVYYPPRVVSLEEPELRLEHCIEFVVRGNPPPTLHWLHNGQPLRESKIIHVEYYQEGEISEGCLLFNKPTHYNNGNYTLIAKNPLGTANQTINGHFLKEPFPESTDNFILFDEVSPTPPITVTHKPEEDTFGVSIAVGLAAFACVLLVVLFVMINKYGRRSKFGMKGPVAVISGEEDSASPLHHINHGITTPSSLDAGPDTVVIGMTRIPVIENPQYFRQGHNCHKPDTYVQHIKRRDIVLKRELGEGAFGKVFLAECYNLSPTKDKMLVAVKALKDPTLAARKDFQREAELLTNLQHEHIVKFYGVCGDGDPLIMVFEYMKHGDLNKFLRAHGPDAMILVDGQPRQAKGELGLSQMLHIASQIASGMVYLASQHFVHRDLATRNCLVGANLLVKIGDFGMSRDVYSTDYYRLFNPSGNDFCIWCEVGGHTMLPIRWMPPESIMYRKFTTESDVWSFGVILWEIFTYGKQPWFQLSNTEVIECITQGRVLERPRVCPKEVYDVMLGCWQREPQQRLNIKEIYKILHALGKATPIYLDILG
Assay: In vitro kinase assay (Table 1)
Assay type: biochemical
parameter: IC50

Would you kindly share the measured IC50 for CNC(=O)c1cc(Oc2ccc3nc(NC4CCCCC4O)sc3c2)ccn1 (stereo not shown) ?
> 10 µM

* * *

Biological target: UniProt Q9P1W9
Sequence (Q9P1W9 whole entry, species assumed): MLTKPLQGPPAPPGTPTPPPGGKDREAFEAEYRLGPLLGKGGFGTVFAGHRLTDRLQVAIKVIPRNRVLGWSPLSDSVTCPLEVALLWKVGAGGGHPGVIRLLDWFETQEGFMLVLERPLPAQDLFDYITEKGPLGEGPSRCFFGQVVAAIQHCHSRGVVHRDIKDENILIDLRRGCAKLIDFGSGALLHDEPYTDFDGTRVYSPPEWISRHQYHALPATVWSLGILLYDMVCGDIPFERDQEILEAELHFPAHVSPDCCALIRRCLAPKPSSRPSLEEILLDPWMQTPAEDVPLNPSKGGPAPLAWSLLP
Experiment: In vitro kinase assay (Table 1)
Assay type: biochemical
parameter: IC50

Would you kindly share the measured IC50 for CNC(=O)c1cc(Oc2ccc3nc(NC4CCCCC4O)sc3c2)ccn1 (stereo not shown) [Compound (I)] ?
> 25 µM

* * *

Biological target: Ron (Homo sapiens, UniProt Q04912)
Assay: In vitro kinase assay (Table 1)
Type: biochemical
parameter: IC50

Would you kindly share the measured IC50 for CNC(=O)c1cc(Oc2ccc3nc(NC4CCCCC4O)sc3c2)ccn1 (stereo not shown) ?
> 10 µM

* * *

Molecular target: BAF/Tel-IGF1R-FL-N.1/sACP (Homo sapiens)
Construct: BAF/Tel-IGF1R-FL- N.1/sACP; fused on or other part: P41212 (Transcription factor ETV6)
Assay: BaF3 proliferation assay
Type: cell-based, murine
parameter: EC50

Would you kindly share the measured EC50 for CNC(=O)c1cc(Oc2ccc3nc(NC4CCCCC4O)sc3c2)ccn1 (stereo not shown) [Compound (I)] ?
> 10 µM

* * *

Biological target: BAF/Bcr-Abl-Luc/sACP (Homo sapiens, UniProt P00519)
Construct: no part of the key; P11274 (Breakpoint cluster region protein)
Sequence (P00519 229-512 limits assumed): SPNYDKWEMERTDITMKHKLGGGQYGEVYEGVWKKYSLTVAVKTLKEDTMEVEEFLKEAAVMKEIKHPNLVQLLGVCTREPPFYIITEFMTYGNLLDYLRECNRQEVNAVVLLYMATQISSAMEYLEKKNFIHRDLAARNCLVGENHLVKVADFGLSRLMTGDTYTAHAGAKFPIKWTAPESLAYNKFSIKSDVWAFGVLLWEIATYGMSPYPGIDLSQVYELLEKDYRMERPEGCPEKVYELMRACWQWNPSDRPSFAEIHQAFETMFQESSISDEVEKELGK
Test: BaF3 proliferation assay
Type: cell-based, murine
parameter: EC50

Would you kindly share the measured EC50 for CNC(=O)c1cc(Oc2ccc3nc(NC4CCCCC4O)sc3c2)ccn1 (stereo not shown) [Compound (I)] ?
> 10 µM

* * *

Biological target: BaF-NPM-ALK (Homo sapiens, UniProt Q9UM73)
Construct: expressed in transfected cells; host or cells: BaF3 (murine pro-B cell line); the other entry of the earlier key: NPM1 (P06748, Nucleophosmin)
Sequence (Q9UM73 with tags, fused parts or gaps): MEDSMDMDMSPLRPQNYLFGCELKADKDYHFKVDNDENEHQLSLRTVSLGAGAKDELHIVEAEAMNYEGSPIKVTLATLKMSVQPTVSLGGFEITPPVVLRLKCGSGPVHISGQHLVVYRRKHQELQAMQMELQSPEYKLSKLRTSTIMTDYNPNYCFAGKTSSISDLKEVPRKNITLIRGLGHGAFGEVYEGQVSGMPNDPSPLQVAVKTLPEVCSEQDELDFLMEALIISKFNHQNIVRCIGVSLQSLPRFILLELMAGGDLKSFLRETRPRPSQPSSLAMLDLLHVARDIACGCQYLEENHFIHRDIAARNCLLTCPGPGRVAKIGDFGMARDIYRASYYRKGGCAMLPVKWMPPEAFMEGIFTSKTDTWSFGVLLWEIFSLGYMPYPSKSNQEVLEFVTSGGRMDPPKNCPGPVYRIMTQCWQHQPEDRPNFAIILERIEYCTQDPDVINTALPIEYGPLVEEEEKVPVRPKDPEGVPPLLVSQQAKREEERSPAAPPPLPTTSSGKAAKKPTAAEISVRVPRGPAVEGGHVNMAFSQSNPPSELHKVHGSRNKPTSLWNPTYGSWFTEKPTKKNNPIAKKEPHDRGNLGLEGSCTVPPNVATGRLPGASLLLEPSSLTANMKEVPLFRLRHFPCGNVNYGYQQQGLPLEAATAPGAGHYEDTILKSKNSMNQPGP
Assay: BaF3 proliferation assay
Assay type: cell-based, murine
parameter: EC50

BaF-NPM-ALK (Homo sapiens, UniProt Q9UM73) / EC50 / CNC(=O)c1cc(Oc2ccc3nc(NC4CCCCC4O)sc3c2)ccn1 (stereo not shown) : value?
> 10 µM

* * *

Biological target: BAF/Tel-BMX-1.2/sACP (Homo sapiens)
Construct: fused on or other part: P41212 (Transcription factor ETV6)
Assay: BaF3 proliferation assay
Assay type: cell-based, murine
parameter: EC50

Would you kindly share the measured EC50 for CNC(=O)c1cc(Oc2ccc3nc(NC4CCCCC4O)sc3c2)ccn1 (stereo not shown) ?
> 10 µM

* * *

Target: PDK_1 (Homo sapiens, UniProt O15530)
Assay: In vitro kinase assay (Table 1)
Format: biochemical
parameter: IC50

Would you kindly share the measured IC50 for CNC(=O)c1cc(Oc2ccc3nc(NC4CCCCC4O)sc3c2)ccn1 (stereo not shown) ?
> 25 µM

* * *

Target: CamKII alpha (Homo sapiens)
Test: In vitro kinase assay (Table 1)
Type: biochemical
parameter: IC50

Would you kindly share the measured IC50 for CNC(=O)c1cc(Oc2ccc3nc(NC4CCCCC4O)sc3c2)ccn1 (stereo not shown) ?
> 10 µM

* * *

Molecular target: BAF/Tel-Syk-1.1/sACP (Homo sapiens, UniProt P43405)
Construct: fused on or other part: P41212 (Transcription factor ETV6)
Assay: BaF3 proliferation assay
Assay type: cell-based, murine
parameter: EC50

Would you kindly share the measured EC50 for CNC(=O)c1cc(Oc2ccc3nc(NC4CCCCC4O)sc3c2)ccn1 (stereo not shown) ?
> 10 µM

* * *

Target: BAF/Tel-TRKB-Q2/sACP (Homo sapiens, UniProt Q16620)
Construct: fused on or other part: P41212 (Transcription factor ETV6)
Sequence (Q16620 538-807 limits assumed, change not shown): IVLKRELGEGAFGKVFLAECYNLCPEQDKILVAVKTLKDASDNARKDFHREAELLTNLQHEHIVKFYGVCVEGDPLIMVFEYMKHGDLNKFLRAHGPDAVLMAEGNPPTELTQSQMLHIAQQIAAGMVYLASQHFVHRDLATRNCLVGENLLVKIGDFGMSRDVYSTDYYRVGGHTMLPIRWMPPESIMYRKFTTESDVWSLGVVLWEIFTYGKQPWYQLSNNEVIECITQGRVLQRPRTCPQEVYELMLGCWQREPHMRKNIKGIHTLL
Assay: BaF3 proliferation assay
Type: cell-based, murine
parameter: EC50

Would you kindly share the measured EC50 for CNC(=O)c1cc(Oc2ccc3nc(NC4CCCCC4O)sc3c2)ccn1 (stereo not shown) ?
> 10 µM

* * *

Molecular target: BAF/Tel-FGFR3-Q2/sACP (Homo sapiens, UniProt P22607)
Construct: fused on or other part: P41212 (Transcription factor ETV6)
Assay: BaF3 proliferation assay
Type: cell-based, murine
parameter: EC50

Would you kindly share the measured EC50 for CNC(=O)c1cc(Oc2ccc3nc(NC4CCCCC4O)sc3c2)ccn1 (stereo not shown) [Compound (I)] ?
> 10 µM

* * *

Biological target: BAF/Tel-EphA3-4.2/sACP (Homo sapiens)
Construct: fused on or other part: P41212 (Transcription factor ETV6)
Sequence (P29320 621-882 limits assumed, change not shown): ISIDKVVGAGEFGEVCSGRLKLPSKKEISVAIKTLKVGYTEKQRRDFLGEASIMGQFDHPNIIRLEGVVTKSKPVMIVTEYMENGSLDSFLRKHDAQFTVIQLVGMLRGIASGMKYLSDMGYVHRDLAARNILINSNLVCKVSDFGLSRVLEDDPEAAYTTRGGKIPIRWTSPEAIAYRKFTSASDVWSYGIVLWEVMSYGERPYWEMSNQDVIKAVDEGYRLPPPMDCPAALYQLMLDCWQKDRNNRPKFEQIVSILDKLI
Assay: BaF3 proliferation assay
Type: cell-based, murine
parameter: EC50

Would you kindly share the measured EC50 for CNC(=O)c1cc(Oc2ccc3nc(NC4CCCCC4O)sc3c2)ccn1 (stereo not shown) ?
> 10 µM

* * *

Target: Ck1gamma2 (Homo sapiens)
Assay: In vitro kinase assay (Table 1)
Format: biochemical
parameter: IC50

Would you kindly share the measured IC50 for CNC(=O)c1cc(Oc2ccc3nc(NC4CCCCC4O)sc3c2)ccn1 (stereo not shown) ?
> 10 µM

* * *

Molecular target: BaF-Tel-FGFR3 (Homo sapiens, UniProt P22607)
Construct: fused on or other part: P41212 (Transcription factor ETV6)
Sequence (P22607 472-761 limits assumed, change not shown): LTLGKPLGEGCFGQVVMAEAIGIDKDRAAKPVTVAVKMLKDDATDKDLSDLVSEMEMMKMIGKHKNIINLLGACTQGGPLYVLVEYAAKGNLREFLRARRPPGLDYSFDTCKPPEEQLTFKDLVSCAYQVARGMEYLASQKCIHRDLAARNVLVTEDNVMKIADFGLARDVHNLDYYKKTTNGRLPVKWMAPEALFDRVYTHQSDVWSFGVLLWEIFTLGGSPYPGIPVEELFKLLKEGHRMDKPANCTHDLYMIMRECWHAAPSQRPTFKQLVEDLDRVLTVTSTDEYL
Assay: BaF3 proliferation assay
Type: cell-based, murine
parameter: EC50

Would you kindly share the measured EC50 for CNC(=O)c1cc(Oc2ccc3nc(NC4CCCCC4O)sc3c2)ccn1 (stereo not shown) [Compound (I)] ?
> 10 µM

* * *

Target: Ck1 delta (Homo sapiens, UniProt P48730)
Sequence (P48730 whole entry): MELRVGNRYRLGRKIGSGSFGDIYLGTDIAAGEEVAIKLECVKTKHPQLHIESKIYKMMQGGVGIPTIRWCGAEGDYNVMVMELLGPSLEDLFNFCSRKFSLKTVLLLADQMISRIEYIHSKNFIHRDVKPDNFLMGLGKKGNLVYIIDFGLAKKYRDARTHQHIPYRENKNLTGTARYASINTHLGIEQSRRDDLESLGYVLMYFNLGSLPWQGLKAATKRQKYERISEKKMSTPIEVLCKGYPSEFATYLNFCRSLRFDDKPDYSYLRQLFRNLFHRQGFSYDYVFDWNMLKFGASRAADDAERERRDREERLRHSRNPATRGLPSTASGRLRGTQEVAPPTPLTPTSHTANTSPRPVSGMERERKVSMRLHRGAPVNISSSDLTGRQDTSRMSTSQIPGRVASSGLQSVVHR
Experiment: In vitro kinase assay (Table 1)
Type: biochemical
parameter: IC50

Would you kindly share the measured IC50 for CNC(=O)c1cc(Oc2ccc3nc(NC4CCCCC4O)sc3c2)ccn1 (stereo not shown) ?
> 10 µM

* * *

Target: BAF/Tel-JAK3-S1.2/sACP (Homo sapiens)
Construct: fused on or other part: P41212 (Transcription factor ETV6)
Sequence (P52333 822-1111 limits assumed, change not shown): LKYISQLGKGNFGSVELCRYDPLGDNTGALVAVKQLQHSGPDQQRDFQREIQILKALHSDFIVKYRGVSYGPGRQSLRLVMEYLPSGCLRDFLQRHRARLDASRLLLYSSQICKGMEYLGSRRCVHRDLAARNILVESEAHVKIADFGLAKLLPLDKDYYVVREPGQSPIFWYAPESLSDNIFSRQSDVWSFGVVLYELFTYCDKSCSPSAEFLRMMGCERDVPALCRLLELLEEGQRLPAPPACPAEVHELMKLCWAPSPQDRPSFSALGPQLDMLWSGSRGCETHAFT
Assay: BaF3 proliferation assay
Format: cell-based, murine
parameter: EC50

BAF/Tel-JAK3-S1.2/sACP (Homo sapiens) / EC50 / CNC(=O)c1cc(Oc2ccc3nc(NC4CCCCC4O)sc3c2)ccn1 (stereo not shown) [Compound (I)] : value?
> 10 µM

* * *

Molecular target: BaF3-Tel-JAK2; clone1 (Homo sapiens, UniProt O60674)
Construct: fused on or other part: P41212 (Transcription factor ETV6)
Sequence (O60674 849-1132 limits assumed, change not shown): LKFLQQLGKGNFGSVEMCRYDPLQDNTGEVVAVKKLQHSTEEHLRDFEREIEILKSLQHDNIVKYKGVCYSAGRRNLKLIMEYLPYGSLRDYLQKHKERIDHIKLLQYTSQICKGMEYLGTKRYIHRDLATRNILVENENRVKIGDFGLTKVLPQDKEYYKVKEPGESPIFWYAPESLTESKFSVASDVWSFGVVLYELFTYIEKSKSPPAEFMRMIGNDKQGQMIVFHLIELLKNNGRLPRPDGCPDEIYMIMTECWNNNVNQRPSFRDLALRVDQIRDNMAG
Assay: BaF3 proliferation assay
Assay type: cell-based, murine
parameter: EC50

Would you kindly share the measured EC50 for CNC(=O)c1cc(Oc2ccc3nc(NC4CCCCC4O)sc3c2)ccn1 (stereo not shown) [Compound (I)] ?
> 10 µM

* * *

Biological target: Plk1 (Homo sapiens, UniProt P53350)
Test: In vitro kinase assay (Table 1)
Format: biochemical
parameter: IC50

Would you kindly share the measured IC50 for CNC(=O)c1cc(Oc2ccc3nc(NC4CCCCC4O)sc3c2)ccn1 (stereo not shown) ?
> 25 µM

* * *

Target: BaF-Tel-IGF1R (Homo sapiens)
Construct: fused on or other part: P41212 (Transcription factor ETV6)
Assay: BaF3 proliferation assay
Type: cell-based, murine
parameter: EC50

Would you kindly share the measured EC50 for CNC(=O)c1cc(Oc2ccc3nc(NC4CCCCC4O)sc3c2)ccn1 (stereo not shown) [Compound (I)] ?
> 10 µM

* * *

Biological target: FGFR2 (Homo sapiens)
Assay: In vitro kinase assay (Table 1)
Format: biochemical
parameter: IC50

Would you kindly share the measured IC50 for CNC(=O)c1cc(Oc2ccc3nc(NC4CCCCC4O)sc3c2)ccn1 (stereo not shown) [Compound (I)] ?
> 10 µM

* * *

Molecular target: Src (Homo sapiens)
Test: In vitro kinase assay (Table 1)
Type: biochemical
parameter: IC50

Would you kindly share the measured IC50 for CNC(=O)c1cc(Oc2ccc3nc(NC4CCCCC4O)sc3c2)ccn1 (stereo not shown) [Compound (I)] ?
> 10 µM
